Biological target: ERα in MCF7 cells (Homo sapiens (Human), UniProt P03372)
Sequence (P03372 whole entry): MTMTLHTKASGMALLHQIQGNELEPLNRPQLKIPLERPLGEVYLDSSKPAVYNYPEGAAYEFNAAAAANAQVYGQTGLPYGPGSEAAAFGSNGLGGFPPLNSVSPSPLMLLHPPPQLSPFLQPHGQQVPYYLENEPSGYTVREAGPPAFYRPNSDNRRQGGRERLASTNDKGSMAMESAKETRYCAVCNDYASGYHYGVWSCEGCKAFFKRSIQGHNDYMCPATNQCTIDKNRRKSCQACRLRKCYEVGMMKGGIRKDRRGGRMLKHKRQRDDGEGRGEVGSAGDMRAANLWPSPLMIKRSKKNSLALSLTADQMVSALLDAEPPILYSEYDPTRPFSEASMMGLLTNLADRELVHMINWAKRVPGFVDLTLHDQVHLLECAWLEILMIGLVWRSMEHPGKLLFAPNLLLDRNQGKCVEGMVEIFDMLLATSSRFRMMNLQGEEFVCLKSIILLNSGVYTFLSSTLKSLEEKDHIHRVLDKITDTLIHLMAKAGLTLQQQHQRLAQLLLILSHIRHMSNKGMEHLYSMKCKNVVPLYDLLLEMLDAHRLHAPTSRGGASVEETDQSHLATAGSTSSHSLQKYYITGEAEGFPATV
Experiment: Test C: estrogen receptor degradation activity, ERα in cell western assay in MCF7 cells
Assay type: cell-based
Conditions: at 3 μM, 4 hours, relative to fulvestrant
compounds and their reported % Degradation at 3 μM

compound | target-or-system | % Degradation at 3 μM, %
COc1ccc(C2=C(c3ccc(O[C@H]4CCN(CCCF)C4)cc3)c3ccc(O)cc3OCC2)c(C)c1 [Example 157] | ERα in MCF7 cells (Homo sapiens (Human), UniProt P03372) | 90
CCOc1ccc(C2=C(c3ccc(O[C@H]4CCN(CCCF)C4)cc3)c3ccc(O)cc3SC2)c(F)n1 [Example 27] | ERα in MCF7 cells (Homo sapiens (Human), UniProt P03372) | 94
CC(C)(O)c1ccc(C2=C(c3ccc(O[C@H]4CCN(CCCF)C4)cc3)c3ccc(O)cc3SC2)c(F)c1 [Example 33] | ERα in MCF7 cells (Homo sapiens (Human), UniProt P03372) | 84
Oc1ccc2c(c1F)OCCC(c1cccc3c1CCN3)=C2c1ccc(O[C@H]2CCN(CCCF)C2)cc1 [Example 134] | ERα in MCF7 cells (Homo sapiens (Human), UniProt P03372) | 85
Oc1ccc2c(c1)C(c1ccc(O[C@H]3CCN(CCCF)C3)cc1)=C(c1ccc(F)cc1Cl)CCS2 [Example 175] | ERα in MCF7 cells (Homo sapiens (Human), UniProt P03372) | 83
Oc1ccc2c(c1)CCCC(c1ccc(Cl)cc1Cl)=C2c1cnc(O[C@H]2CCN(CCCF)C2)nc1 [Example 238] | ERα in MCF7 cells (Homo sapiens (Human), UniProt P03372) | 87
Cc1ccc(C2=C(c3ccc(O[C@H]4CCN(CCCF)C4)cc3)c3cc(C)c(O)cc3OCC2)c(F)c1 [Example 140] | ERα in MCF7 cells (Homo sapiens (Human), UniProt P03372) | 85
Cc1c(Cl)cccc1C1=C(c2ccc(O[C@H]3CCN(CCCF)C3)cc2)c2ccc(O)c(Cl)c2OCC1 [Example 109] | ERα in MCF7 cells (Homo sapiens (Human), UniProt P03372) | 90
Oc1ccc2c(c1)SCC(c1ccc(Cl)nc1F)=C2c1ccc(O[C@H]2CCN(CCCF)C2)cc1 [Example 55] | ERα in MCF7 cells (Homo sapiens (Human), UniProt P03372) | 88
O=C1Cc2cc(C3=C(c4ccc(O[C@H]5CCN(CCCF)C5)cc4)c4ccc(O)cc4SC3)ccc2N1 [Example 51] | ERα in MCF7 cells (Homo sapiens (Human), UniProt P03372) | 85
Oc1ccc2c(c1Cl)OCCC(c1cccc3[nH]ccc13)=C2c1ccc(O[C@H]2CCN(CCCF)C2)cc1 [Example 124] | ERα in MCF7 cells (Homo sapiens (Human), UniProt P03372) | 76
Oc1ccc(C2=C(c3ccc(O[C@H]4CCN(CCCF)C4)cc3)c3cc(O)ccc3CC2)c(F)c1 [Example 6] | ERα in MCF7 cells (Homo sapiens (Human), UniProt P03372) | 84
Cc1c(Cl)cccc1C1=C(c2ccc(O[C@H]3CCN(CCCF)C3)cc2)c2ccc(O)c(C)c2OCC1 [Example 112] | ERα in MCF7 cells (Homo sapiens (Human), UniProt P03372) | 87
Oc1ccc2c(c1)OCCC(c1cccc3[nH]ccc13)=C2c1ccc(O[C@H]2CCN(CCCF)C2)cc1 [Example 110] | ERα in MCF7 cells (Homo sapiens (Human), UniProt P03372) | 87
Cc1cc(C2=C(c3ccc(O[C@H]4CCN(CCCF)C4)cc3)c3ccc(O)cc3SC2)ccc1Cl [Example 17] | ERα in MCF7 cells (Homo sapiens (Human), UniProt P03372) | 87
